Assay conditions: in acetonitrile, 311.05 K
Readout: solubility (mole fraction)

Inquiry: Dear colleague, I am looking for the recorded solubility (mole fraction) of the following molecule: `CCCCOC(=O)c1ccc(O)cc1`
Reply text: 0.753

* * *

Assay conditions: in acetonitrile, 281.05 K
Readout: solubility (mole fraction)
Would you mind answering with just the numeric figure?

Inquiry: Dear colleague, I am looking for the recorded solubility (mole fraction) of the following compound: `CCCCOC(=O)c1ccc(O)cc1`
Reply text: 0.275

Origin of the recorded values: BigSolDB 2.1
